tested on: Alternaria solani; test: In vivo preventive test on Alternaria solani (tomato); conditions: 500 ppm of active ingredient, evaluated 7 days after inoculation

- Compound: "Cn1nc(C(F)F)c(C(=O)N(CCOc2c(Cl)cccc2Cl)C2CC2)c1F"
  Efficacy: "95%"
- Compound: "CCC(COc1cc(Cl)ccc1Cl)NC(=O)c1c(C(F)F)nn(C)c1Cl (stereo not drawn)"
  Efficacy: "80%"
- Compound: "Cn1nc(C(F)F)c(C(=O)NCC2CCCC(C(F)(F)F)C2)c1F (stereo not drawn)"
  Efficacy: "95%"
- Compound: "Cn1nc(C(F)F)c(C(=O)NC(C)(C)CCc2cc(Cl)cc(Cl)c2)c1F"
  Efficacy: "90%"
- Compound: "CC(CCc1ccc(Cl)c(Cl)c1)N(C(=O)c1c(C(F)F)nn(C)c1F)C1CC1 (racemic)"
  Efficacy: "100%"
- Compound: "Cn1nc(C(F)F)c(C(=O)NC2CCCC(CCC(C)(C)C)C2)c1F (stereo not drawn)"
  Efficacy: "90%"
- Compound: "CC(CCc1c(Cl)cc(Cl)cc1Cl)NC(=O)c1c(C(F)F)nn(C)c1F (stereo not drawn)"
  Efficacy: "95%"
- Compound: "CC(C)CC(C)C1CCCCC1NC(=O)c1c(C(F)F)nn(C)c1F (single isomer, unassigned) [Example 337]"
  Efficacy: "100%"
- Compound: "CC(CCc1ccccc1)NC(=O)c1c(C(F)F)nn(C)c1Cl (stereo not drawn)"
  Efficacy: "95%"
- Compound: "Cn1nc(C(F)F)c(C(=O)NC2(C3CCCCC3)CC2)c1F"
  Efficacy: "100%"
- Compound: "Cn1nc(C(F)F)c(C(=O)N(CCOc2ccc(-c3ccccc3)cc2)C2CC2)c1F"
  Efficacy: "80%"
- Compound: "Cn1nc(C(F)F)c(C(=O)NC2(C3CCCCC3)CC2)c1Cl"
  Efficacy: "95%"
- Compound: "CC(N(C(=O)c1c(C(F)F)nn(C)c1Cl)C1CC1)C(C)(C)Cc1ccccc1 (stereo not drawn)"
  Efficacy: "90%"
- Compound: "CC(C)CC(C)C1CCCCC1NC(=O)c1c(C(F)F)nn(C)c1F (single isomer, unassigned) [Example 338]"
  Efficacy: "100%"
- Compound: "Cn1nc(C(F)F)c(C(=O)NCC(Sc2ccc(Cl)cc2)C(F)(F)F)c1F (stereo not drawn)"
  Efficacy: "100%"
- Compound: "Cn1nc(C(F)F)c(C(=O)NC(C)(C)CCc2cccc(Cl)c2)c1F"
  Efficacy: "95%"
- Compound: "CC1CCCC(C)(C)C1CCC(C)N(C(=O)c1c(C(F)F)nn(C)c1Cl)C1CC1 (stereo not drawn)"
  Efficacy: "80%"
- Compound: "Cn1nc(C(F)F)c(C(=O)NCCOc2c(F)cccc2F)c1F"
  Efficacy: "90%"

----------
Assay: log P by HPLC on reversed-phase column (EEC Directive 79/831 Annex V.A8)
Format: physicochemical
Procedure: In table 1, the log P values were determined in accordance with EEC Directive 79/831 Annex V.A8 by HPLC (High Performance Liquid Chromatography) on a reversed-phase column (C18), using the method described below: Temperature: 40° C.; […]

- Compound: "Cn1nc(C(F)F)c(C(=O)N(CCOc2c(Cl)cccc2Cl)C2CC2)c1Cl [Example 161]"
  logP: 3.69
- Compound: "CC(C)N(CCOc1ccc(Cl)cc1)C(=O)c1c(C(F)F)nn(C)c1F [Example 56]"
  logP: 3.62
- Compound: "Cn1nc(C(F)F)c(C(=O)N(C[Si](C)(C)Cc2ccccc2)C2CC2)c1Cl [Example 287]"
  logP: 4.20
- Compound: "CCCCC1CCCCC1NC(=S)c1c(C(F)F)nn(C)c1F (centres unmarked) [Example 332]"
  logP: 4.86
- Compound: "Cn1nc(C(F)F)c(C(=O)NC2CCCC2CCC(C)(C)C)c1Cl (centres unmarked) [Example 320]"
  logP: 4.49
- Compound: "CC(CCc1ccc(Cl)c(Cl)c1)N(C(=O)c1c(C(F)F)nn(C)c1F)C1CC1 (racemic) [Example 129]"
  logP: 4.44
- Compound: "Cc1ccc(C#CCN(C(=O)c2c(C(F)F)nn(C)c2F)C2CC2)s1 [Example 286]"
  logP: 3.37

----------
test: log P by HPLC on reversed-phase column (EEC Directive 79/831 Annex V.A8); type: physicochemical; conditions: log P (isomer A)
Observable: chromatographic logP

- Compound: "Cn1nc(C(F)F)c(C(=O)NC2CCCC2CCC(C)(C)C)c1F (stereo not shown)"
  Observed value: 4.22

----------
test system: Alternaria solani; assay: In vivo preventive test on Alternaria solani (tomato); details: 500 ppm of active ingredient, evaluated 7 days after inoculation
Reported Efficacy by item:

- Compound: "CCCC1CCCCC1NC(=O)c1c(C(F)F)nn(C)c1F (single isomer, unassigned) [Example 343]"
  Efficacy (%): 95
- Compound: "Cn1nc(C(F)F)c(C(=S)N(C[Si](C)(C)Cc2ccc(Cl)cc2Cl)C2CC2)c1F"
  Efficacy (%): 95
- Compound: "CN(CCCc1cc(Cl)ccc1Cl)C(=O)c1c(C(F)F)nn(C)c1Cl"
  Efficacy (%): 100
- Compound: "Cn1nc(C(F)F)c(C(=O)N(C2CC2)C2CCCCC2Oc2ccccc2)c1F (stereo not drawn)"
  Efficacy (%): 100
- Compound: "Cn1nc(C(F)F)c(C(=O)NCCOc2cc(Cl)ccc2Cl)c1F"
  Efficacy (%): 90
- Compound: "CC(C)CC(C)C1CCCC1NC(=O)c1c(C(F)F)nn(C)c1F (mixture of isomers) [Example 315]"
  Efficacy (%): 100
- Compound: "CC(CCc1ccc(Cl)cc1Cl)N(C(=O)c1c(C(F)F)nn(C)c1F)C1CC1 (stereo not drawn)"
  Efficacy (%): 90
- Compound: "CCCCC1CCCC1NC(=O)c1c(C(F)F)nn(C)c1Cl (stereo not drawn)"
  Efficacy (%): 100
- Compound: "CCC1CCCCC1CNC(=O)c1c(C(F)F)nn(C)c1F (stereo not drawn)"
  Efficacy (%): 95

----------
assay: log P by HPLC on reversed-phase column (EEC Directive 79/831 Annex V.A8); format: physicochemical
Reported logP by item:
Observable: logP

- Compound: "CC(C)N(CC(=O)Nc1ccccc1)C(=O)c1c(C(F)F)nn(C)c1F"
  Observable: "logP"
  Observed value: 2.25
- Compound: "Cn1nc(C(F)F)c(C(=O)NC(CCc2ccc(Cl)cc2)C(C)(C)C)c1Cl (stereo not drawn)"
  Observable: "logP"
  Observed value: 4.41
- Compound: "CC(COc1ccc(Cl)cc1Cl)NC(=O)c1c(C(F)F)nn(C)c1Cl (stereo not drawn)"
  Observable: "logP"
  Observed value: 3.76
- Compound: "Cn1nc(C(F)F)c(C(=O)NC(C)(C)CCc2cccc(C(F)(F)F)c2)c1Cl"
  Observable: "logP"
  Observed value: 4.11
- Compound: "Cn1nc(C(F)F)c(C(=O)N(CCOc2c(Cl)cc(Cl)cc2Cl)C2COC2)c1F"
  Observable: "logP"
  Observed value: 3.42
- Compound: "CC(CCc1ccc(Cl)cc1Cl)NC(=O)c1c(C(F)F)nn(C)c1F (stereo not drawn)"
  Observable: "logP"
  Observed value: 3.79
- Compound: "Cn1nc(C(F)F)c(C(=O)NC(CCc2ccc(Cl)cc2)C(C)(C)C)c1F (stereo not drawn)"
  Observable: "logP"
  Observed value: 4.24
- Compound: "CSC1CCCCC1N(C(=O)c1c(C(F)F)nn(C)c1F)C1CC1 (stereo not drawn)"
  Observable: "logP"
  Observed value: 3.50
- Compound: "CCC1CCCCC1CNC(=O)c1c(C(F)F)nn(C)c1F (stereo not drawn)"
  Observable: "logP"
  Observed value: 3.49
- Compound: "CCCCC1CCCC1NC(=O)c1c(C(F)F)nn(C)c1Cl (stereo not drawn)"
  Observable: "logP"
  Observed value: 3.83
- Compound: "Cc1ccc(C(C)CCN(C)C(=O)c2c(C(F)F)nn(C)c2F)o1 (stereo not drawn)"
  Observable: "logP"
  Observed value: 2.88
- Compound: "CC(CCc1c(Cl)cc(Cl)cc1Cl)N(C(=S)c1c(C(F)F)nn(C)c1F)C1CC1 (stereo not drawn)"
  Observable: "logP"
  Observed value: 5.81
- Compound: "Cc1ccc(C(C)CCN(C(=O)c2c(C(F)F)nn(C)c2F)C2CC2)o1 (stereo not drawn)"
  Observable: "logP"
  Observed value: 3.41
- Compound: "Cn1nc(C(F)F)c(C(=O)N(C2CC2)C2CCCCC2C2=CCCCC2)c1F (stereo not drawn)"
  Observable: "logP"
  Observed value: 4.88
- Compound: "Cn1nc(C(F)F)c(C(=O)NCC(Sc2ccc(Cl)cc2)C(F)(F)F)c1F (stereo not drawn)"
  Observable: "logP"
  Observed value: 3.73
- Compound: "CN(C(=O)c1c(C(F)F)nn(C)c1F)C(COc1ccc2ccccc2c1)C1CC1 (racemic)"
  Observable: "logP"
  Observed value: 3.76
- Compound: "CCCN(C(=O)c1c(C(F)F)nn(C)c1F)C(C)COc1ccccc1-c1ccccc1 (stereo not drawn)"
  Observable: "logP"
  Observed value: 4.32
- Compound: "CN(CC(=O)OCc1ccccc1)C(=O)c1c(C(F)F)nn(C)c1Cl"
  Observable: "logP"
  Observed value: 2.57
- Compound: "CCCCC1CCCC1NC(=S)c1c(C(F)F)nn(C)c1F (stereo not drawn)"
  Observable: "logP"
  Observed value: 4.39
- Compound: "Cn1nc(C(F)F)c(C(=O)NC2CCCCC2C2CCCCC2)c1F (stereo not drawn)"
  Observable: "logP"
  Observed value: 4.34
- Compound: "Cn1nc(C(F)F)c(C(=O)N(CCOc2ccc(Cl)cc2)C2CCCC2)c1F"
  Observable: "logP"
  Observed value: 4.13
- Compound: "Cn1nc(C(F)F)c(C(=O)NC(COc2ccc(Cl)cc2Cl)C2CC2)c1Cl (stereo not drawn)"
  Observable: "logP"
  Observed value: 4.18
- Compound: "Cc1cccc(C)c1OCCNC(=O)c1c(C(F)F)nn(C)c1Cl"
  Observable: "logP"
  Observed value: 3.13
- Compound: "Cn1nc(C(F)F)c(C(=O)NC(C)(C)C(=O)Nc2ccccc2)c1Cl"
  Observable: "logP"
  Observed value: 2.27
- Compound: "Cc1cccc(C)c1CCC(C)NC(=O)c1c(C(F)F)nn(C)c1Cl (stereo not drawn)"
  Observable: "logP"
  Observed value: 3.61
- Compound: "CCC(C)C(C)N(C(=O)c1c(C(F)F)nn(C)c1Cl)C1CC1 (stereo not drawn)"
  Observable: "logP"
  Observed value: 3.52
- Compound: "CN(CC=Cc1ccccc1)C(=O)c1c(C(F)F)nn(C)c1Cl"
  Observable: "logP"
  Observed value: 2.84
- Compound: "CCCN(CC(=O)Nc1c(Cl)cc(Cl)cc1Cl)C(=O)c1c(C(F)F)nn(C)c1F"
  Observable: "logP"
  Observed value: 2.96
- Compound: "CC(COc1cc(Cl)ccc1Cl)NC(=O)c1c(C(F)F)nn(C)c1Cl (stereo not drawn)"
  Observable: "logP"
  Observed value: 3.69
- Compound: "Cn1nc(C(F)F)c(C(=O)N(CCCc2ccco2)C2CC2)c1F"
  Observable: "logP"
  Observed value: 2.75
- Compound: "CC(CNC(=O)c1c(C(F)F)nn(C)c1Cl)Cc1cc(Cl)ccc1Cl (stereo not drawn)"
  Observable: "logP"
  Observed value: 3.87
- Compound: "CCC(COc1cc(Cl)ccc1Cl)NC(=O)c1c(C(F)F)nn(C)c1Cl (stereo not drawn)"
  Observable: "logP"
  Observed value: 4.01
- Compound: "Cn1nc(C(F)F)c(C(=O)N(C2CC2)C2CCCCC2Oc2ccccc2)c1F (stereo not drawn) [Example 247]"
  Observable: "logP"
  Observed value: 4.21
- Compound: "COCCN(CC=Cc1ccccc1)C(=O)c1c(C(F)F)nn(C)c1F"
  Observable: "logP"
  Observed value: 2.86
- Compound: "CC(CCc1ccccc1C(F)(F)F)N(C(=O)c1c(C(F)F)nn(C)c1Cl)C1CC1 (stereo not drawn)"
  Observable: "logP"
  Observed value: 4.26
- Compound: "Cn1nc(C(F)F)c(C(=O)NCC(=O)Nc2c(Cl)cc(Cl)cc2Cl)c1F"
  Observable: "logP"
  Observed value: 2.39

From: patent US8999956B2
